system.tested: BRD4 BD1 (Homo sapiens, UniProt O60885)
measurement.description: AlphaScreen binding assay, BRD4 Bromodomain 1
pIC50: −log10 of the molar value.
Below is a list of entries, each paired with its recorded pIC50 value.

Below are worked cases with known answers.
{"molecule": "CC(=O)N1c2ccc(-c3cccc(NS(=O)(=O)N(C)C)c3)cc2N(C(=O)OC(C)C)C[C@@H]1C", "measured": "6.00 to 7.00"}
{"molecule": "CC(=O)N1c2ccccc2N(CC2CCCCC2)C[C@@H]1C", "measured": "< 5.00"}
{"molecule": "CC(=O)N1c2ccc(-c3ccc(C(=O)N4CC[C@@H](O)C4)cc3)cc2N(C(=O)OC(C)C)C[C@@H]1C", "measured": "6.00 to 7.00"}

Query: // fetch pIC50 for CC(=O)N1c2ccc(-c3cnn(Cc4c[nH]cn4)c3)cc2N(C(=O)OC(C)C)CC1C (stereo not shown) ; system: BRD4 BD1 (Homo sapiens, UniProt O60885)
Reply: 6.00 to 7.00

* * *

Below is a list of entries, each paired with its recorded IC50 value.
system.tested: BRD4 BD2 (Homo sapiens, UniProt O60885)
measurement.description: AlphaScreen binding assay, BRD4 Bromodomain 2

Below are worked cases with known answers.
{"compound.structure": "CC(=O)N1c2ccc(-c3cnn(C4COC4)c3)cc2N(C(=O)OCC2(C)COC2)C[C@@H]1C", "test.readout": "IC50", "measured": "> 500 nM"}
{"compound.structure": "CC(=O)N1c2ccccc2N(C(=O)CN2CCS(=O)(=O)CC2)C[C@@H]1C", "test.readout": "IC50", "measured": "> 500 nM"}
{"compound.structure": "CC(C)OC(=O)N1C[C@H](C)N(C(=O)C2CC2)c2ccc(-c3cnn(C[C@@H]4CCNC4)c3)cc21", "test.readout": "IC50", "measured": "50 to 500 nM"}

Query: For the compound `CC(=O)N1c2ccc(-c3ccc(S(N)(=O)=O)cc3)cc2N(C(=O)OC2CCCCC2)C[C@@H]1C` , report IC50.
Reply: 50 to 500 nM

Query: For the compound `CC(=O)N1c2ccc(-c3cnn(C4CC4)c3)cc2N(C(=O)Oc2ccc(F)cc2F)C[C@@H]1C` , report IC50.
Reply: 50 to 500 nM

Query: For the compound `COc1ccc(C)cc1OC(=O)N1C[C@H](C)N(C(C)=O)c2ccc(-c3cnn(C4CC4)c3)cc21` , report IC50.
Reply: 50 to 500 nM

Query: For the compound `CCOC(=O)N1C[C@H](C)N(C(C)=O)c2ccc(-c3ccc(OC)c(S(=O)(=O)N(CC)CC)c3)cc21` , report IC50.
Reply: 50 to 500 nM

Query: For the compound `CC(=O)N1c2ccc(-c3ccc(S(=O)(=O)CC4CC4)cc3)cc2N(C(=O)C2CCC2)C[C@@H]1C` , report IC50.
Reply: 50 to 500 nM

Query: For the compound `COc1ccc(C(=O)N2C[C@H](C)N(C(C)=O)c3ccc(-c4ccc(S(C)(=O)=O)cc4)cc32)cc1` , report IC50.
Reply: 50 to 500 nM

* * *

Below is a list of entries, each paired with its recorded pIC50 value.
system.tested: BRD4 BD1 (Homo sapiens, UniProt O60885)
measurement.description: AlphaScreen binding assay, BRD4 Bromodomain 1
pIC50: −log10 of the molar value.

{"molecule": "CC(=O)N1c2ccc(-c3cnn(Cc4noc(C)n4)c3)cc2N(C(=O)OC(C)C)C[C@@H]1C [Example I-138]", "system.tested": "BRD4 BD1 (Homo sapiens, UniProt O60885)", "test.readout": "pIC50", "measured": "6.00 to 7.00"}

Next molecule, pIC50 to be filled in.
Query: For the molecule CC(=O)N1c2ccc(-c3ccc(N4CCOCC4)cc3)cc2N(C(=O)c2ccco2)C[C@@H]1C [Example I-850] , report pIC50.
Reply: 6.00 to 7.00

* * *

Below is a list of entries, each paired with its recorded IC50 value.
system.tested: BRD4 BD2 (Homo sapiens, UniProt O60885)
measurement.description: AlphaScreen binding assay, BRD4 Bromodomain 2

Below are worked cases with known answers.
{"compound": "COCCOC(=O)N1C[C@H](C)N(C(C)=O)c2ccc(-c3ccc(S(C)(=O)=O)cc3)cc21", "system.tested": "BRD4 BD2 (Homo sapiens, UniProt O60885)", "IC50": "> 500 nM"}
{"compound": "CC(=O)N1c2ccc(-c3cnn(CCN(C)C)c3)cc2N(C(=O)C2CC2)C[C@@H]1C", "system.tested": "BRD4 BD2 (Homo sapiens, UniProt O60885)", "IC50": "50 to 500 nM"}
{"compound": "CC(=O)N1c2ccc(-c3cnn(CCO)c3)cc2N(C(=O)Oc2ccc(F)cc2)C[C@@H]1C", "system.tested": "BRD4 BD2 (Homo sapiens, UniProt O60885)", "IC50": "50 to 500 nM"}
{"compound": "CCS(=O)(=O)Nc1ccc(-c2ccc3c(c2)N(C(=O)C2CC2)C[C@H](C)N3C(C)=O)cc1", "system.tested": "BRD4 BD2 (Homo sapiens, UniProt O60885)", "IC50": "50 to 500 nM"}
{"compound": "CC(=O)N1c2ccc(-c3cnn(Cc4ncccn4)c3)cc2N(C(=O)C2CC2)C[C@@H]1C", "system.tested": "BRD4 BD2 (Homo sapiens, UniProt O60885)", "IC50": "< 50 nM"}
{"compound": "CC(=O)N1c2ccc(-c3ccc4[nH]c(=O)[nH]c4c3)cc2N(C(=O)c2ccco2)CC1C (stereo not shown)", "system.tested": "BRD4 BD2 (Homo sapiens, UniProt O60885)", "IC50": "< 50 nM"}
{"compound": "CC(=O)N1c2ccccc2N(Cc2ccc(OCCN(C)C)cc2)C[C@@H]1C", "system.tested": "BRD4 BD2 (Homo sapiens, UniProt O60885)", "IC50": "> 500 nM"}
{"compound": "CNC(=O)Cn1cc(-c2ccc3c(c2)N(C(=O)C2CC2)C[C@H](C)N3C(C)=O)cn1", "system.tested": "BRD4 BD2 (Homo sapiens, UniProt O60885)", "IC50": "50 to 500 nM"}

Query: // fetch IC50 for `CC(C)OC(=O)N1C[C@H](C)N(C(=O)C2CC2)c2ccc(-c3cnn(C(C)(C)C)c3)cc21` ; system: BRD4 BD2 (Homo sapiens, UniProt O60885)
Reply: > 500 nM

Query: // fetch IC50 for `CC(C)OC(=O)N1c2ccc(-c3ccc(S(C)(=O)=O)cc3)cc2N(C(=O)c2ccco2)C[C@@H]1C` ; system: BRD4 BD2 (Homo sapiens, UniProt O60885)
Reply: > 500 nM

* * *

system.tested: BRD4 BD1 (Homo sapiens, UniProt O60885)
measurement.description: AlphaScreen binding assay, BRD4 Bromodomain 1
test.readout: IC50

Below are worked cases with known answers.
{"molecule": "CC(=O)N1c2ccc(-c3cnn(CCN(C)C)c3)cc2N(C(=O)OC(C)C)C[C@@H]1C", "measured": "1000 to 10000 nM"}
{"molecule": "COc1ccc(OC(=O)N2C[C@H](C)N(C(C)=O)c3ccc(-c4cnn(C5CC5)c4)cc32)cc1", "measured": "100 to 1000 nM"}
{"molecule": "CC(=O)N1c2ccccc2N(C(=O)Cc2ccc3c(c2)OCO3)C[C@@H]1C", "measured": "> 10000 nM"}
{"molecule": "CC(=O)N1c2ccccc2N(C(=O)COc2ccc(F)cc2)C[C@@H]1C", "measured": "> 10000 nM"}
{"molecule": "COC(=O)N1c2ccc(-c3cnn(Cc4cncnc4)c3)cc2N(C(=O)OC(C)C)C[C@@H]1C", "measured": "100 to 1000 nM"}
{"molecule": "CC(=O)N1c2ccc(-c3cnn(C4COC4)c3)cc2N(C(=O)CC(C)C)C[C@@H]1C", "measured": "> 10000 nM"}

Query: For the molecule `COC(=O)N1c2ccc(-c3cnn(CCO)c3)cc2N(C(=O)Oc2ccccn2)C[C@@H]1C` , report IC50.
Reply: 1000 to 10000 nM

Query: For the molecule `CC(=O)N1c2ccc(-c3ccc(S(=O)(=O)NC(C)C)cc3)cc2N(C(=O)c2ccco2)C[C@@H]1C` , report IC50.
Reply: 1000 to 10000 nM

Query: For the molecule CC(=O)N1c2ccc(-c3cnn(C4CN[C@H]4C)c3)cc2N(C(=O)OC(C)C)C[C@@H]1C (stereo partly drawn) , report IC50.
Reply: 100 to 1000 nM

Query: For the molecule `CC(=O)N1c2ccc(-c3ccc(S(C)(=O)=O)cc3)cc2N(C(=O)c2cn3ccncc3n2)C[C@@H]1C` , report IC50.
Reply: > 10000 nM

Query: For the molecule `CC(=O)N1c2ccc(-c3ccc(C(=O)N4CCNCC4)cc3)cc2N(C(=O)OC2CCOCC2)C[C@@H]1C` , report IC50.
Reply: 100 to 1000 nM
